Test system: PC-12
Assay: Neuroprotective activity in rat PC12 cells expressing SOD1 G93A mutant assessed as increase in cell viability after 48 hrs by CalceinAM-based fluorescence assay
Format: functional
Conditions: PC-12, 48 h
PROPERTY NAME: pEC50
Conceptually, pEC50 converts a concentration in mol/L into minus its log10.

Solved entries (count: 8):
Query `O=C(c1cccnc1)n1[nH]c(COc2cc(Cl)cc(Cl)c2)cc1=O` yields pEC50 of 5.88

Value of pEC50 reported for the molecule `O=Cn1[nH]c(COc2cc(Cl)cc(Cl)c2)cc1=O` is 6.31

pEC50 recorded for this molecule, `O=C(c1ccc(N=C=S)cc1)n1[nH]c(COc2cc(Cl)cc(Cl)c2)cc1=O` , is 6.48

pEC50 for `Nc1ccc(C(=O)n2[nH]c(COc3cc(Cl)cc(Cl)c3)cc2=O)cc1` is 6.03

Quick note, pEC50 for `O=c1cc(COc2cc(Cl)cc(Cl)c2)[nH]n1Cc1ccccc1` landed at 6.89

Just so you know, measured pEC50 for `O=c1cc(COc2cc(Cl)cc(Cl)c2)[nH]n1CCCO` came out at 6.47

Short answer for `O=C(c1cccs1)n1[nH]c(COc2cc(Cl)cc(Cl)c2)cc1=O` : pEC50 was 6.51

Measured pEC50, `Cn1[nH]c(COc2cc(Cl)cc(Cl)c2)cc1=O` : 6.17

---
# pEC50 of `O=c1cc(COc2cc(Cl)cc(Cl)c2)[nH][nH]1` = 7.17

Value of pEC50 reported for the molecule `Cc1nnsc1C(=O)n1[nH]c(COc2cc(Cl)cc(Cl)c2)cc1=O` is 5.77

Reported pEC50 of `O=c1cc(COc2cc(Cl)cc(Cl)c2)[nH]n1-c1ccccc1` : 5.99

// pEC50 value for `O=c1cc(COc2cc(Cl)cc(Cl)c2)[nH]n1Cc1cccc(O)c1` : 6.44

The molecule listed as `O=c1cc(COc2cc(Cl)cc(Cl)c2)[nH]n1-c1nc(-c2ccccc2)cs1` has a reported pEC50 of 6.00

Reported pEC50 ( `O=C(CCCC[C@@H]1SC[C@@H]2NC(=O)N[C@@H]21)NCCOCCOCCOCCOCCC(=O)n1[nH]c(COc2cc(Cl)cc(Cl)c2)cc1=O` ) = 6.17

Measured pEC50, `CC(=O)n1[nH]c(COc2cc(Cl)cc(Cl)c2)cc1=O` : 6.57

For `N#CCC(=O)n1[nH]c(COc2cc(Cl)cc(Cl)c2)cc1=O` the molecule record lists pEC50 as 6.38

====

Catalogue of EC50 values
Tested on: PC-12
Test: Neuroprotective activity in rat PC12 cells expressing SOD1 G93A mutant assessed as increase in cell viability after 48 hrs by CalceinAM-based fluorescence assay
Format: functional
Conditions: PC-12, 48 h

Here are 2 compounds together with their reported answers.
Form field, EC50 with PC-12, item `Cn1c(COc2cc(Cl)cc(Cl)c2)cc(=O)n1C` : > 32000 nM

The recorded EC50 with PC-12 for `O=c1cc(COc2cc(Cl)cc(Cl)c2)[nH]n1-c1ccc(Cl)cc1` was 1730 nM

Moving on to another compound below.
Form field EC50 for item `O=C1N[C@H]2[C@H](CS[C@H]2CCCCC(=O)n2[nH]c(COc3cc(Cl)cc(Cl)c3)cc2=O)N1` on PC-12: 560 nM
